- EXPERIMENTAL_SYSTEM: recombinant human dopamine transporter (Homo sapiens, UniProt Q01959)
- Construct: expressed in transfected cells; host or cells: CHO-K1 or HEK293
- Sequence (Q01959 whole entry): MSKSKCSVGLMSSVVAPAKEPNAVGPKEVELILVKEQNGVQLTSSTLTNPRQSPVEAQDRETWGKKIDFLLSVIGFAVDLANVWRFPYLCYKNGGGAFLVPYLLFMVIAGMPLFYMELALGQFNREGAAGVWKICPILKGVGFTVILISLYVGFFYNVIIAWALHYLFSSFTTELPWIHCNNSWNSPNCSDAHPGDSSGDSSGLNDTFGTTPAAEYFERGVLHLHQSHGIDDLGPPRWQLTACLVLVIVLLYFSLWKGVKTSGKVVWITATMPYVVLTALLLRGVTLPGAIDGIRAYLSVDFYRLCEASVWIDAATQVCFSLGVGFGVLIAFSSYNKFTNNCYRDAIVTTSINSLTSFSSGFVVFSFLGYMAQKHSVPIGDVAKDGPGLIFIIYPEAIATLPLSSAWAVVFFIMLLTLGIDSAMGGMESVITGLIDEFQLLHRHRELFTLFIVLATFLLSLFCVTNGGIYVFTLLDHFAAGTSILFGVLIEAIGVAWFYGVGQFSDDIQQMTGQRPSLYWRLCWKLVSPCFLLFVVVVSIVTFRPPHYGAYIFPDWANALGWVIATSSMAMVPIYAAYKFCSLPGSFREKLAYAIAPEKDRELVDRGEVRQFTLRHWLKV
- TEST_NAME: Dopamine functional uptake assay for human reuptake transporter
- Assay type: cell-based
- CONDITIONS: [3H]dopamine uptake, CHO-K1 or HEK293 cells expressing human dopamine transporter; read-out: Human IC50 (nM) DAT
Each entry falls in a class defined on IC50; the bands are lowest = under 200 nM, middle = from 200 nM up to 500 nM, highest = 500 nM and over

Worked examples, 3 compounds total:
[
  {
    "COMPOUND": "CN[C@H]1Cc2ccc(OC)cc2[C@@H](c2ccc(Cl)c(Cl)c2)C1 (stereo in doubt) [Compound 32a.3]",
    "EXPERIMENTAL_SYSTEM": "recombinant human dopamine transporter (Homo sapiens, UniProt Q01959)",
    "DISCRETE_LABEL": "highest"
  },
  {
    "COMPOUND": "CN(C)[C@H]1Cc2ccccc2[C@H](c2ccc(Cl)c(Cl)c2)C1 (single isomer, unassigned) [Compound 8c]",
    "EXPERIMENTAL_SYSTEM": "recombinant human dopamine transporter (Homo sapiens, UniProt Q01959)",
    "DISCRETE_LABEL": "middle"
  },
  {
    "COMPOUND": "CNC[C@H]1Cc2ccccc2[C@H](c2ccc(Cl)c(Cl)c2)C1 (single isomer, unassigned) [Compound 15d]",
    "EXPERIMENTAL_SYSTEM": "recombinant human dopamine transporter (Homo sapiens, UniProt Q01959)",
    "DISCRETE_LABEL": "middle"
  }
]

(Q) Category of CN[C@H]1Cc2ccc(OC)cc2[C@@H](c2ccc(Cl)c(Cl)c2)C1 (single isomer, unassigned) [Compound 32a.1] :
(A) highest

(Q) Class for CN(C)C1CC(c2ccc(Cl)c(Cl)c2)c2ccccc2C1O (single isomer, unassigned) [Compound 23c] ?
(A) lowest

(Q) Which class holds COc1ccc2c(c1)C[C@H](N(C)C)C[C@@H]2c1ccc(Cl)c(Cl)c1 (single isomer, unassigned) [Compound 33c.4] ?
(A) middle

(Q) Which class holds CN(C)[C@H]1CCc2ccccc2[C@H]1c1ccc(Cl)c(Cl)c1 (single isomer, unassigned) [Compound 37d] ?
(A) lowest

(Q) Class (by measured IC50) for CN(C)[C@H]1Cc2ccccc2[C@H](c2ccc(Cl)c(Cl)c2)C1 (single isomer, unassigned) [Compound 8b]
(A) lowest

====

- EXPERIMENTAL_SYSTEM: recombinant human serotonin transporter (Homo sapiens)
- Construct: expressed in transfected cells; host or cells: HEK-293
- Sequence (P31645 whole entry): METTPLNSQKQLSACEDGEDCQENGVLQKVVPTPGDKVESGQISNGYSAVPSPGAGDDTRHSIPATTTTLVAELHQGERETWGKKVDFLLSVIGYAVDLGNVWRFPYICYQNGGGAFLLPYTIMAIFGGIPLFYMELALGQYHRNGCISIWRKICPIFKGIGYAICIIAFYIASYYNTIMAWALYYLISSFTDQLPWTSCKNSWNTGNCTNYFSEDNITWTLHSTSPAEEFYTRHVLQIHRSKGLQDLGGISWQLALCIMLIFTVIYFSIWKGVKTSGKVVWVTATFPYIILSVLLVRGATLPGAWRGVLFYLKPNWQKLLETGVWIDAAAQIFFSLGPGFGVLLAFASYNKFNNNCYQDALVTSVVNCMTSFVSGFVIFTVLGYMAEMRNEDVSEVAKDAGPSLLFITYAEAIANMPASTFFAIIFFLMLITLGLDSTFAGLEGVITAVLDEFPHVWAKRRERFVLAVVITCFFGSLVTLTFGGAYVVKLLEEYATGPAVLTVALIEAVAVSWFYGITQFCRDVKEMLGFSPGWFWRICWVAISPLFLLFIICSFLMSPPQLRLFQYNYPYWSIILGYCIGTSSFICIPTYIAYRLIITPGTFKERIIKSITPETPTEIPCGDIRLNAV
- TEST_NAME: Serotonin functional uptake assay for human reuptake transporter
- Assay type: cell-based
- CONDITIONS: [3H]serotonin uptake, HEK-293 cells expressing human serotonin transporter; read-out: Human IC50 (nM) SERT
Kindly apply the following: True if IC50 is less than 600 nM, False in every other case.

(Q) Is IC50 strictly under 600 nM for the entry CC(N)C1=Cc2ccccc2[C@H](c2ccc(Cl)c(Cl)c2)C1 (single isomer, unassigned) [Compound 45] ?
(A) False

(Q) I wonder whether CN[C@H]1Cc2ccc(OC)cc2[C@@H](c2ccc(Cl)c(Cl)c2)C1 (single isomer, unassigned) [Compound 32a.1] has IC50 below 600 nM. Can you tell?
(A) True

(Q) Consider the molecule CN[C@H]1Cc2ccc(OC)cc2[C@@H](c2ccc(Cl)c(Cl)c2)C1 (single isomer, unassigned) [Compound 32a.2] . Is its IC50 strictly less than 600 nM?
(A) True

(Q) API: query returns whether the molecule falls strictly under 600 nM in IC50. Query: CC([C@@H]1Cc2ccccc2[C@H](c2ccc(Cl)c(Cl)c2)C1)N(C)C (single isomer, unassigned) [Compound 53]
(A) True

====

- EXPERIMENTAL_SYSTEM: recombinant human dopamine transporter (Homo sapiens)
- Construct: expressed in transfected cells; host or cells: CHO-K1 or HEK293
- TEST_NAME: Dopamine functional uptake assay for human reuptake transporter
- Type: cell-based
- CONDITIONS: [3H]dopamine uptake, CHO-K1 or HEK293 cells expressing human dopamine transporter; read-out: Human IC50 (nM) DAT
Can you tell me log10 IC50 for the items I'm about to list?
Kindly note that the scale is log10 and the underlying IC50 is in nM.

[
  {
    "COMPOUND": "COc1ccc2c(c1)C(c1ccc(Cl)c(Cl)c1)CC(N(C)C)C2 (single isomer, unassigned) [Compound 33a.1]",
    "EXPERIMENTAL_SYSTEM": "recombinant human dopamine transporter (Homo sapiens)",
    "log10 IC50": 2.89
  },
  {
    "COMPOUND": "CNC1c2ccccc2CCC1c1ccc(Cl)c(Cl)c1 (single isomer, unassigned) [Compound 40a]",
    "EXPERIMENTAL_SYSTEM": "recombinant human dopamine transporter (Homo sapiens)",
    "log10 IC50": 3.53
  },
  {
    "COMPOUND": "CN(C)[C@H]1CCc2ccccc2[C@H]1c1ccc(Cl)c(Cl)c1 (single isomer, unassigned) [Compound 37a]",
    "EXPERIMENTAL_SYSTEM": "recombinant human dopamine transporter (Homo sapiens)",
    "log10 IC50": 2.37
  },
  {
    "COMPOUND": "COc1ccc2c(c1)C(c1ccc(Cl)c(Cl)c1)CC(N(C)C)C2 (single isomer, unassigned) [Compound 33a.3]",
    "EXPERIMENTAL_SYSTEM": "recombinant human dopamine transporter (Homo sapiens)",
    "log10 IC50": 3.36
  },
  {
    "COMPOUND": "CN(C)[C@@H]1c2ccccc2CC[C@@H]1c1ccc(Cl)c(Cl)c1 (single isomer, unassigned) [Compound 41b]",
    "EXPERIMENTAL_SYSTEM": "recombinant human dopamine transporter (Homo sapiens)",
    "log10 IC50": 3.05
  }
]

Your task in this section: give log10 IC50 for each listed record.
1. CN[C@H]1CCc2ccccc2[C@H]1c1ccc(Cl)c(Cl)c1 (single isomer, unassigned) [Compound 36c]
2. CC(N)C1=Cc2ccccc2[C@H](c2ccc(Cl)c(Cl)c2)C1 (single isomer, unassigned) [Compound 46]
3. CN(C)[C@H]1CCc2ccccc2[C@H]1c1ccc(Cl)c(Cl)c1 (single isomer, unassigned) [Compound 37b]
4. CN[C@H]1CCc2ccccc2[C@H]1c1ccc(Cl)c(Cl)c1 (stereo in doubt) [Compound 36d]

(A)
[1.94, 3.22, 2.03, 2.31]

Give me log10 IC50 for each of these compounds, listed below.
1. COc1ccc2c(c1)C(c1ccc(Cl)c(Cl)c1)CC(N(C)C)C2 (single isomer, unassigned) [Compound 33a.2]
2. CN(C)[C@H]1Cc2ccccc2[C@H](c2ccc(Cl)c(Cl)c2)C1 (single isomer, unassigned) [Compound 8d]

(A)
1. 2.60
2. 2.50

Please look at the items below and tell me log10 IC50 for each one, in order.
1. CN(C)[C@H]1CCc2ccccc2[C@H]1c1ccc(Cl)c(Cl)c1 (single isomer, unassigned) [Compound 37c]
2. CNC[C@H]1Cc2ccccc2[C@H](c2ccc(Cl)c(Cl)c2)C1 (single isomer, unassigned) [Compound 15c]
3. CC1(C)C[C@@H](c2ccc(Cl)c(Cl)c2)c2ccccc2C1N (some centres unmarked) [Compound 59]

(A)
1: 2.45; 2: 2.05; 3: 3.03

====

- EXPERIMENTAL_SYSTEM: recombinant human norepinephrine transporter (Homo sapiens, UniProt P23975)
- Construct: expressed in transfected cells; host or cells: HEK293 or MDCK
- Sequence (P23975 whole entry): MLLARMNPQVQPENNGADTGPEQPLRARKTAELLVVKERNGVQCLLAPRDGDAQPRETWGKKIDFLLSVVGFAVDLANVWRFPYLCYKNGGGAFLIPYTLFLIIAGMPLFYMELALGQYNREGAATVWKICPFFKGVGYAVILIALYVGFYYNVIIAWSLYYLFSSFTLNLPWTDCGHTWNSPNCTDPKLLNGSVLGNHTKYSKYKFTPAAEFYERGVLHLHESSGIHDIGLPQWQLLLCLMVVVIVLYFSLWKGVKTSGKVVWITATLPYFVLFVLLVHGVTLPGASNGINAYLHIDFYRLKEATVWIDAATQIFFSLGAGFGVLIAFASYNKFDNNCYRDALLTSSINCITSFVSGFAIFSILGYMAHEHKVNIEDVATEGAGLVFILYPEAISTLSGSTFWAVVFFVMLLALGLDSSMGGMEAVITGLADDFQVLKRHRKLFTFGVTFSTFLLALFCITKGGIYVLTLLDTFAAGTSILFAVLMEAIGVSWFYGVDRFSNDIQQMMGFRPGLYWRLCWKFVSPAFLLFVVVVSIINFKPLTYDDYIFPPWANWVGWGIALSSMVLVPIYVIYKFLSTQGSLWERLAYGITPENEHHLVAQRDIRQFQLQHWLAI
- TEST_NAME: Norepinephrine functional uptake assay for human reuptake transporter
- Type: cell-based
- CONDITIONS: Human IC50 (nM) NET, [3H]norepinephrine uptake, HEK293 or MDCK cells expressing human norepinephrine transporter
- Method: Norepinephrine Functional Uptake Assay for Human Reuptake Transporter The cells were plated before the assay. Test compound and/or vehicle was preincubated with cells in modified HEPES buffer pH 7.1 or pH 7.4 for 20 minutes at 18 to 25° C. . […] After the cells were washed to remove [^3H]norepinephrine not internalized, the cells were lysed, and the amount of tritium in the cell lysate was measured using a liquid scintillation counter to determine [^3H]norepinephrine uptake. […]
Give measured IC50 for each item. Keep answers brief.
Numbers only, in nM.

[
  {
    "COMPOUND": "CN(C)C1CC(c2ccc(Cl)c(Cl)c2)c2ccccc2C1O (single isomer, unassigned) [Compound 23d]",
    "IC50 [nM]": 65
  },
  {
    "COMPOUND": "N[C@H]1Cc2ccccc2[C@H](c2ccc(Cl)c(Cl)c2)C1 (single isomer, unassigned) [Compound 6c]",
    "IC50 [nM]": 855
  },
  {
    "COMPOUND": "CC(N)C1=Cc2ccccc2[C@H](c2ccc(Cl)c(Cl)c2)C1 (single isomer, unassigned) [Compound 46]",
    "IC50 [nM]": 580
  },
  {
    "COMPOUND": "N[C@H]1Cc2ccccc2[C@H](c2ccc(Cl)c(Cl)c2)C1 (single isomer, unassigned) [Compound 6b]",
    "IC50 [nM]": 731
  },
  {
    "COMPOUND": "CN(C)[C@H]1Cc2ccccc2[C@H](c2ccc(Cl)c(Cl)c2)C1 (single isomer, unassigned) [Compound 8c]",
    "IC50 [nM]": 164
  }
]

Hello, I would appreciate it if you could give IC50 for each entry below.
1. CN(C)CC1Cc2ccccc2C(c2ccc(Cl)c(Cl)c2)C1 (single isomer, unassigned) [Compound 16b]
2. CN(C)C1CC(c2ccc(Cl)c(Cl)c2)c2ccccc2C1O (single isomer, unassigned) [Compound 23b]

(A)
1: 309; 2: 48

// batch mode: one IC50 value per listed entry
1. CC(N)[C@@H]1Cc2ccccc2[C@H](c2ccc(Cl)c(Cl)c2)C1 (single isomer, unassigned) [Compound 52]
2. CNC[C@H]1Cc2ccccc2[C@H](c2ccc(Cl)c(Cl)c2)C1 (single isomer, unassigned) [Compound 15c]
3. CC(N)C1=Cc2ccccc2[C@H](c2ccc(Cl)c(Cl)c2)C1 (single isomer, unassigned) [Compound 45]
4. CN(C)CC1Cc2ccccc2C(c2ccc(Cl)c(Cl)c2)C1 (single isomer, unassigned) [Compound 16a]

(A)
[122, 210, 53, 565]
